This section presents molecules with their documented IC50 values.
- TARGET DESC: ERK1/2 kinase
- Construct: fused on or other part: Carna's ERK products carry a GST tag by vendor knowledge
- PROTOCOL DETAILS: ERK1/2 kinase (Carna) inhibitory activity, Caliper mobility shift
- Assay type: biochemical
- RUN CONDITIONS: numeric values; read-out: ERK½ IC50
Reply numerically in nM, unit not repeated.

Recorded IC50, per entry:
CPD SMILES: C[C@H](C(=O)N[C@H](CO)c1ccc(F)c(Cl)c1)N1Cc2ccc(-c3nc(NC4CCOCC4)ncc3Cl)nc2C1=O
IC50 (nM): 4.8
--
CPD SMILES: C[C@H](C(=O)N[C@H](CO)c1cccc(F)c1)N1Cc2ccc(-c3nc(NC4CCOCC4)ncc3Cl)nc2C1=O
IC50 (nM): 1.8
--
CPD SMILES: Cc1cccc([C@@H](CO)NC(=O)[C@@H](C)N2Cc3ccc(-c4nc(Nc5ccc(F)c(N6CCOCC6)c5)ncc4Cl)nc3C2=O)c1
IC50 (nM): 12
--
CPD SMILES: Cc1cccc([C@@H](CO)NC(=O)[C@@H](C)N2Cc3ccc(-c4nc(NC5CC(F)(F)C5)ncc4Cl)nc3C2=O)c1
IC50 (nM): 13
--
CPD SMILES: Cc1cccc([C@@H](CO)NC(=O)[C@@H](C)N2Cc3ccc(-c4ccnc(NC(C)C)n4)c(F)c3C2=O)c1
IC50 (nM): 3.6

Attention now shifts to the item below.
Looking up `Cc1cccc([C@@H](CO)NC(=O)[C@@H](C)N2Cc3ccc(-c4ccnc(NC5CCOCC5)c4)c(F)c3C2=O)c1` , I see its IC50 listed as 1.3
